The entries below come with measured Inhibition 2 values attached.
- MEASURED ON: cloned human or rodent CNS receptors, channels, and transporters (PDSP panel) (Homo sapiens)
- Construct: expressed in transfected cells
- ASSAY REMARKS: PDSP GPCR panel primary binding assays at 10 μM
- MEASUREMENT CONDITIONS: 5-HT1E; primary assay, replicate 2
Don't forget the unit after the value.

Guide cases for Inhibition 2, answers given:
CC(=O)N1CCC(NC(=O)NC23CC4CC(CC(C4)C2)C3)CC1 [UNC10302683A, AR9281] ... -12.87%
CNc1nc(C)nc(N[C@H]2CCC[C@@H](C(=O)NCc3ccc(C#N)cc3C(F)(F)F)C2)n1 [UNC10302679A, GSK2256294A] ... 6.56%
O=C(NC1CC1)C(=O)C(Cc1ccccc1)NC(=O)[C@H]1CCC(=O)N1Cc1ccccc1 (stereo partly shown) [UNC10302676A, ABT-957 (Alicapistat)] ... -0.45%

-- ask Quick one: Inhibition 2 of CCC(=O)N1CCC(NC(=O)Nc2ccc(OC(F)(F)F)cc2)CC1 [UNC10302681A, TPPU] ?
-- reply -10.14%

====

- Tested on: cloned human or rodent CNS receptors, channels, and transporters (PDSP panel)
- ASSAY REMARKS: PDSP GPCR panel primary binding assays at 10 μM
- MEASUREMENT CONDITIONS: DOR; primary assay, mean inhibition
The entries below come with measured Mean % values attached.
The reply should be a number in %, with the unit left off.

-- ask Quick one: Mean % of CNc1nc(C)nc(N[C@H]2CCC[C@@H](C(=O)NCc3ccc(C#N)cc3C(F)(F)F)C2)n1 [UNC10302679A, GSK2256294A] ?
-- reply 1.65

-- ask Quick one: Mean % of CC(=O)N1CCC(NC(=O)NC23CC4CC(CC(C4)C2)C3)CC1 [UNC10302683A, AR9281] ?
-- reply -7.7

-- ask Quick one: Mean % of CCC(=O)N1CCC(NC(=O)Nc2ccc(OC(F)(F)F)cc2)CC1 [UNC10302681A, TPPU] ?
-- reply -1.52

-- ask Quick one: Mean % of O=C(NC1CC1)C(=O)C(Cc1ccccc1)NC(=O)[C@H]1CCC(=O)N1Cc1ccccc1 (stereo partly shown) [UNC10302676A, ABT-957 (Alicapistat)] ?
-- reply -6.76

====

- MEASURED ON: cloned human or rodent CNS receptors, channels, and transporters (PDSP panel) (Homo sapiens)
- Construct: expressed in transfected cells
- ASSAY REMARKS: PDSP GPCR panel primary binding assays at 10 μM
- MEASUREMENT CONDITIONS: D2; primary assay, replicate 3
ASSAY ENDPOINT: Inhibition 3 (%)
The reply should be a number in %, with the unit left off.

Guide cases for Inhibition 3, answers given:
O=C(NC1CC1)C(=O)C(Cc1ccccc1)NC(=O)[C@H]1CCC(=O)N1Cc1ccccc1 (stereo partly shown) [UNC10302676A, ABT-957 (Alicapistat)] ... -11.38
CNc1nc(C)nc(N[C@H]2CCC[C@@H](C(=O)NCc3ccc(C#N)cc3C(F)(F)F)C2)n1 [UNC10302679A, GSK2256294A] ... -10.66
CC(=O)N1CCC(NC(=O)NC23CC4CC(CC(C4)C2)C3)CC1 [UNC10302683A, AR9281] ... -11.83

Now turn to the next compound.
-- ask Quick one: Inhibition 3 of CCC(=O)N1CCC(NC(=O)Nc2ccc(OC(F)(F)F)cc2)CC1 [UNC10302681A, TPPU] ?
-- reply -3.46

====

The entries below come with measured Mean % values attached.
- MEASURED ON: cloned human or rodent CNS receptors, channels, and transporters (PDSP panel) (Homo sapiens)
- Construct: expressed in transfected cells
- ASSAY REMARKS: PDSP GPCR panel primary binding assays at 10 μM
- MEASUREMENT CONDITIONS: DAT; primary assay, mean inhibition
Don't forget the unit after the value.

Guide cases for Mean %, answers given:
O=C(NC1CC1)C(=O)C(Cc1ccccc1)NC(=O)[C@H]1CCC(=O)N1Cc1ccccc1 (some centres unmarked) [UNC10302676A, ABT-957 (Alicapistat)] ... 30.14%
CC(=O)N1CCC(NC(=O)NC23CC4CC(CC(C4)C2)C3)CC1 [UNC10302683A, AR9281] ... 71.25%
O=c1oc2ccccc2cc1-c1cn2cc(Cc3ccc(F)cc3)sc2n1 [UNC10302680A, iMDK] ... 24.58%
CCC(=O)N1CCC(NC(=O)Nc2ccc(OC(F)(F)F)cc2)CC1 [UNC10302681A, TPPU] ... 59.91%

Now turn to the next compound.
-- ask Quick one: Mean % of CNc1nc(C)nc(N[C@H]2CCC[C@@H](C(=O)NCc3ccc(C#N)cc3C(F)(F)F)C2)n1 [UNC10302679A, GSK2256294A] ?
-- reply 54.13%

====

- MEASURED ON: cloned human or rodent CNS receptors, channels, and transporters (PDSP panel) (Homo sapiens)
- Construct: expressed in transfected cells
- Sequence (P25100 1-572): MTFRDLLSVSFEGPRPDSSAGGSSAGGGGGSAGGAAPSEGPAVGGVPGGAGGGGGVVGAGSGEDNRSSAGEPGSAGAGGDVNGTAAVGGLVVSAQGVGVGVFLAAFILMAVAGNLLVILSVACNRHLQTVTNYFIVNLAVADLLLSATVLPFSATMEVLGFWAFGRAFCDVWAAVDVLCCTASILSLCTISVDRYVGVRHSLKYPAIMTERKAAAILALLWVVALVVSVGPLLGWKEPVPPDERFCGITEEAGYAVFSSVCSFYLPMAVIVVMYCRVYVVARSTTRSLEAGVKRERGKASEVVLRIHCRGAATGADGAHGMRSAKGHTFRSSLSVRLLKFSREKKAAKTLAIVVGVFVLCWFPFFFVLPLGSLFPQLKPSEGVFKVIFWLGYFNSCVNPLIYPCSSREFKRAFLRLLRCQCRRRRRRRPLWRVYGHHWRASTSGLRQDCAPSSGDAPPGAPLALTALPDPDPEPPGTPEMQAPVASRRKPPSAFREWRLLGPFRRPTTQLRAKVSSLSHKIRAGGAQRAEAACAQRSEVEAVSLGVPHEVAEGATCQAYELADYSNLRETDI
- ASSAY REMARKS: PDSP GPCR panel primary binding assays at 10 μM
- MEASUREMENT CONDITIONS: Alpha1D; primary assay, replicate 3
ASSAY ENDPOINT: Inhibition 3

Guide cases for Inhibition 3, answers given:
CCC(=O)N1CCC(NC(=O)Nc2ccc(OC(F)(F)F)cc2)CC1 [UNC10302681A, TPPU] ... -20.78%
O=C(NC1CC1)C(=O)C(Cc1ccccc1)NC(=O)[C@H]1CCC(=O)N1Cc1ccccc1 (stereo partly shown) [UNC10302676A, ABT-957 (Alicapistat)] ... -4.72%
CNc1nc(C)nc(N[C@H]2CCC[C@@H](C(=O)NCc3ccc(C#N)cc3C(F)(F)F)C2)n1 [UNC10302679A, GSK2256294A] ... -15.38%

Now turn to the next compound.
-- ask Quick one: Inhibition 3 of CC(=O)N1CCC(NC(=O)NC23CC4CC(CC(C4)C2)C3)CC1 [UNC10302683A, AR9281] ?
-- reply -12.82%

====

- Test system: cloned human or rodent CNS receptors, channels, and transporters (PDSP panel)
- ASSAY REMARKS: PDSP GPCR panel primary binding assays at 10 μM
- MEASUREMENT CONDITIONS: DOR; primary assay, replicate 2
ASSAY ENDPOINT: Inhibition 2 (%)
The reply should be a number in %, with the unit left off.

Guide cases for Inhibition 2, answers given:
CC(=O)N1CCC(NC(=O)NC23CC4CC(CC(C4)C2)C3)CC1 [UNC10302683A, AR9281] ... -2.69
CNc1nc(C)nc(N[C@H]2CCC[C@@H](C(=O)NCc3ccc(C#N)cc3C(F)(F)F)C2)n1 [UNC10302679A, GSK2256294A] ... -1.97
CCC(=O)N1CCC(NC(=O)Nc2ccc(OC(F)(F)F)cc2)CC1 [UNC10302681A, TPPU] ... -4.86

Now turn to the next compound.
-- ask Quick one: Inhibition 2 of O=C(NC1CC1)C(=O)C(Cc1ccccc1)NC(=O)[C@H]1CCC(=O)N1Cc1ccccc1 (stereo partly shown) [UNC10302676A, ABT-957 (Alicapistat)] ?
-- reply -0.34

====

- MEASURED ON: cloned human or rodent CNS receptors, channels, and transporters (PDSP panel) (Cavia porcellus, UniProt Q60492)
- Construct: expressed in transfected cells
- Sequence (Q60492 whole entry): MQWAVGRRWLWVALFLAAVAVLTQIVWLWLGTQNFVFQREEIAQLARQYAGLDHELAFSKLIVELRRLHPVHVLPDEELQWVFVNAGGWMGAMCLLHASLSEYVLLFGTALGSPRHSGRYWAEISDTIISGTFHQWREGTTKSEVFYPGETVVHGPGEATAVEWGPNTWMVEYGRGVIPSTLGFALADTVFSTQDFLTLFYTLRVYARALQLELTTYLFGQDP
- ASSAY REMARKS: PDSP GPCR panel primary binding assays at 10 μM
- MEASUREMENT CONDITIONS: Sigma 1; primary assay, replicate 2
ASSAY ENDPOINT: Inhibition 2 (%)
The reply should be a number in %, with the unit left off.

O=C(NC1CC1)C(=O)C(Cc1ccccc1)NC(=O)[C@H]1CCC(=O)N1Cc1ccccc1 (stereo partly shown) [UNC10302676A, ABT-957 (Alicapistat)] ... -7.02

-- ask Quick one: Inhibition 2 of CNc1nc(C)nc(N[C@H]2CCC[C@@H](C(=O)NCc3ccc(C#N)cc3C(F)(F)F)C2)n1 [UNC10302679A, GSK2256294A] ?
-- reply -1.38

-- ask Quick one: Inhibition 2 of CCC(=O)N1CCC(NC(=O)Nc2ccc(OC(F)(F)F)cc2)CC1 [UNC10302681A, TPPU] ?
-- reply 23.6

-- ask Quick one: Inhibition 2 of CC(=O)N1CCC(NC(=O)NC23CC4CC(CC(C4)C2)C3)CC1 [UNC10302683A, AR9281] ?
-- reply 2.63
